Target: Left-right determination factor 2 (Homo sapiens) (UniProt O00292)
Sequence (O00292 whole entry, looked up): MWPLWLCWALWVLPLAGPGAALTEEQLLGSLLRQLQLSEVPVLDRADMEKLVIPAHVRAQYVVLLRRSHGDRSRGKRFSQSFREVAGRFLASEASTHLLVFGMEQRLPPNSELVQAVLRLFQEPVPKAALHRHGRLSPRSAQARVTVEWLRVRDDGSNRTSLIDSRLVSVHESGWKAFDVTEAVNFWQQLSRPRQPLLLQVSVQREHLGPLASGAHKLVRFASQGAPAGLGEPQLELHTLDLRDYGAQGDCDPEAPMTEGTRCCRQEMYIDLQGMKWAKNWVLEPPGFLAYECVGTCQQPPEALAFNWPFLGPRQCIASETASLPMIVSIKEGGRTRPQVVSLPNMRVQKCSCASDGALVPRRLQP
Test: small molecules binding LEFTY2 protein – biochemical, small-molecule microarray, 635 nm fluorescence scan, primary screen (AID 1110)
Settings: higher = more signal
Measured property: composite z-score
Respond with the number and no other words.

{"columns": ["Mol", "Subject of test", "Assay value"],
 "data": [
  ["CCOC(=O)C[C@H]1[C@H](OC(=O)Cc2ccc3c(c2)OCO3)[C@@H](NC(=O)c2ccc3ccccc3n2)c2cc(OCCCO)ccc2N1C(=O)c1ccc2ccccc2n1", "Left-right determination factor 2 (Homo sapiens) (UniProt O00292)", 0.464],
  ["CCCNC(=O)[C@@H]1c2ccccc2C(=O)N(Cc2ccc(OC(F)(F)F)cc2)[C@H]1c1ccc(CO)cc1", "Left-right determination factor 2 (Homo sapiens) (UniProt O00292)", -0.144],
  ["COC(=O)[C@@]1(Cc2ccc(F)cc2)[C@H]2c3cc(C(=O)N(C)C)n(CCc4ccc(OC)c(Br)c4)c3C[C@H]2CN1C(=O)c1ccccc1", "Left-right determination factor 2 (Homo sapiens) (UniProt O00292)", -0.392],
  ["COC(=O)[C@@]1(Cc2ccc(OC)cc2)[C@H]2c3cc(C(=O)N4CCCC4)n(CCc4c[nH]c5ccc(OC)cc45)c3C[C@H]2CN1C(=O)c1ccccc1", "Left-right determination factor 2 (Homo sapiens) (UniProt O00292)", 0.221],
  ["O=C(NCCN1CCOCC1)[C@@H]1c2ccccc2C(=O)N(Cc2ccccc2Cl)[C@H]1c1ccc(CO)cc1", "Left-right determination factor 2 (Homo sapiens) (UniProt O00292)", -0.341],
  ["CCOC(=O)C[C@H]1[C@H](OC(=O)Cc2ccc3c(c2)OCO3)[C@@H](NC(=O)C2CCCCC2)c2cc(OCCCO)ccc2N1C(=O)c1ccccc1", "Left-right determination factor 2 (Homo sapiens) (UniProt O00292)", -0.684]
]}

Now take the following molecule into account.
Query: What value of composite z-score has been reported for the following molecule? "CCOC(=O)C1=CC[C@@H](c2ccccc2)N(S(=O)(=O)c2ccc(C)cc2)[C@H]1c1ccccc1"
Response: 0.0056

* * *

Entries annotated with measured z-score
Experiment: forskolin-driven CRE-LacZ activity in PC12 – cell-based, CRE-LacZ reporter, forskolin-stimulated, primary screen (AID 1146);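 note: PC12 cells with 6xCRE LacZ reporter stimulated by forskolin 10 µM; beta-galactosidase reporter signal reflecting CREB driven transcription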
Conditions: luminescence, 4.5 h, higher = more signal, called active from +8 up or from −8 down
Respond with the number and no other words.

Examples with their reported z-score follow.
{"columns": ["Molecule", "z-score"],
 "data": [
  ["COCCOC(=O)N1C(=O)[C@@]2(c3cc(C#CC4=CCCCC4)ccc31)[C@H](c1ccccc1OCCO)N1[C@H](c3ccccc3)[C@H](c3ccccc3)OC(=O)[C@H]1[C@@H]2C(=O)NC[C@H](O)c1ccccc1", 0.083],
  ["C=CCC(OC(C)=O)[C@@H]1[C@@H](N(Cc2ccc(-c3ccccc3)cc2)C(=O)c2ccc(-c3ccccc3)cc2)c2cc(OCCCO)ccc2N1C(=O)c1ccc2ccccc2c1 (stereo not given in full)", 0.318],
  ["C=C[C@H](C)[C@H](OC(=O)Nc1ccc(SC)cc1)c1ccc(OCCO)cc1", 1.58]
]}

Query: What value of z-score has been reported for the following molecule? "CN(C)CCCCCCNC(=O)[C@@H]1C[C@@H]2C(=O)N3CCC[C@H]3C(=O)N2[C@@H]1c1cccc(OCCO)c1"
Response: 0.766

Query: What value of z-score has been reported for the following molecule? COc1cc2c(cc1O)C(c1ccc(CN3CCCC3)cc1)N(Cc1cc3c(cc1Br)OCO3)CC2 (stereo not given)
Response: -0.0519
